Source of measurements: patent US20070004689A1

# System: human hepatocyte suspensions
# test details: Hepatocyte incubations, human
# Assay type: in vitro ADME
# experimental context: human hepatocytes, 1 uM, 60 minutes; NR = no reaction
# Procedure: Hepatocyte Incubations: An in vitro measure of metabolism using cells from rat and human liver. Rat and human hepatocyte suspensions (10^6 cells per mL of serum-free (H)CL15 culture medium) were incubated with 2 concentrations (1 and 5 μM) of each of the compounds. Stock solutions were prepared in DMSO, and were further diluted in culture medium to the final test concentrations. […] Samples were analyzed to measure the disappearance of parent compound over time. […]
assay metric: Hepatocyte Human 60/120′ (1 uM): 60′

{"columns": ["molecule", "quantitative readout"],
 "data": [
  ["COc1cc2c(cc1C(N)=O)CC[C@@H]1[C@@H]2CC[C@]2(C)C(=O)CC[C@@H]12 [Compound 54]", 99],
  ["COc1cc2c(cc1C(N)=O)CC[C@@H]1[C@@H]2CC[C@]2(C)C=CC[C@@H]12 [Compound 63]", 52],
  ["COc1cc2c(cc1C(N)=O)CC[C@@H]1[C@@H]2CC[C@]2(C)CCC[C@@H]12 [Compound 57]", 111]
]}
